- Tested on: AncSZ;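 note: 11-residue human phosphosite peptides and single-mutation variants displayed on the E. coli surface, counted by deep sequencing, each peptide's frequency after selection divided by its frequency in the unselected input library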;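 note: frequency after pTyr selection over input frequency; kinase dosed for 20-30% of maximal phosphorylation in three min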
- method.summary: phosphorylation enrichment, bacterial display (enrichment ratio); higher = better substrate or ligand; peptides without Tyr show the background
reported.property: phosphorylation enrichment
Numbers only.

For orientation, consider the following solved cases.
[
  {
    "residue.sequence": "CTTSHYNYMCN [TP53_Y234_I232S]",
    "phosphorylation enrichment": 0.896
  },
  {
    "residue.sequence": "PANMVYSTVEI [SLAMF7_Y304_T302M]",
    "phosphorylation enrichment": 1.38
  },
  {
    "residue.sequence": "NFDRIYIYHLR [MYOF_Y1137_V1136I]",
    "phosphorylation enrichment": 1.17
  }
]

Go through the items and report each one's phosphorylation enrichment.
1. LQPNNYQFCGG [CSF1R_Y969]
2. FSLIHYAGIVV [MYH7_Y582_D587V]
3. AFQGKYTPSGQ [ALDOA_Y343_C339Y_YF]
4. ETKGDYEKILV [ANXA1_Y335]
5. YRGYSYDDIPD [TMEM230_Y112]
6. LPHVIYCRLWC [SMAD2_Y128_R133C]

Response:
[1.49, 1.13, 0.388, 1.16, 0.973, 1.12]

// for each sequence in input: emit phosphorylation enrichment
1. WRPFGYPCRRR [BCS1L_Y181_R183C]
2. PINEPYGDDMD [JUP_Y693]
3. STGSRYQPLAS [NCAPD2_Y1325]

Response:
[0.622, 2.44, 0.474]

Go through the list and state phosphorylation enrichment for each entry.
1. TQTPPYVKKHR [LARP1B_Y457_P462R]
2. RSIGEYDVLRG [PRKDC_Y2936]

Response:
0.774
0.795
